Data origin, for the record: patent US20230123334A1

- Tested on: HEK293 cells
- assay summary: Preliminary screening as mRNA vectors, EGFP mRNA transfection of HEK293 cells
- Format: cell-based
- run conditions: EGFP mRNA 50 ng per well, 96-well plates; percentage of GFP fluorescent cells relative to total number of cells (Hoechst)
Label scheme for Absolute mRNA transfection efficiency in HEK293 cells: low band (below 2%), middle band (2% to below 20%), high band (20% or more)

*Q* Class label required: CCCCCCCCCCCCCCCNc1nc(NCCN(C)C)nc(SCCCCCCCC)n1 [Compound D1S8N15]
*A* high band

*Q* Class label required: CCCCCCCCCCCCCCCCCCNc1nc(NCCN(C)C)nc(SCCCCCCCCCCC)n1 [Compound D1S11N18]
*A* middle band

*Q* Class label required: CCCCCCCCCCCCCNc1nc(NCCCN2CCN(C)CC2)nc(SCCCCCCCC)n1 [Compound D9S8N13]
*A* high band

*Q* Class label required: CCCCCCCCCCSc1nc(NCCCCCCC)nc(NCCN2CCN(C)CC2)n1 [Compound D5S10N7]
*A* middle band

*Q* Class label required: CCCCCCCCCCCCSc1nc(NCCCCCCCCCCC)nc(NCCN(C)C)n1 [Compound D1S12N11]
*A* middle band

*Q* Class label required: CCCCCCCCCCCCN(CCCCCCCCCCCC)c1nc(NCCN2CCCC2)nc(SCCCCCCC)n1 [D3S7^2N12]
*A* low band

*Q* Class label required: CCCCCCCCCCCCCNc1nc(NCCN(CC)CC)nc(SCCCCCC)n1 [Compound D7S6N13]
*A* middle band

*Q* Class label required: CCCCCCCCCCCCCCCSc1nc(NCCCCCC)nc(NCC2CCN(C)CC2)n1 [Compound D10S15N6]
*A* middle band

*Q* Class label required: CCCCCCCCCCCCCCCCNc1nc(NCCN(CC)CC)nc(SCCCCCCCCCC)n1 [Compound D7S10N16]
*A* middle band

*Q* Class label required: CCCCCCCNc1nc(NCCCN2CCOCC2)nc(SCCCCCC)n1 [Compound D8S6N7]
*A* low band

*Q* Class label required: CCCCCCCCCSc1nc(NCCN2CCCC2)nc(SCCCCCC)n1 [Compound D3S6S9]
*A* middle band

*Q* Class label required: CCCCCCCCCCSc1nc(NCCCCCCCCC)nc(NCCN(CC)CC)n1 [Compound D7S10N9]
*A* low band

*Q* Class label required: CCCCCCCCCCCCCNc1nc(NCCN2CCCC2)nc(SCCCCCC)n1 [Compound D3S6N13]
*A* middle band

*Q* Class label required: CCCCCCCCCCCCCCCSc1nc(NCCCCCCCCCCC)nc(NCCN2CCCC2)n1 [Compound D3S15N11]
*A* high band

*Q* Class label required: CCCCCCCCCCCCNc1nc(NCCCN2CCOCC2)nc(SCCCCCCCCCCCC)n1 [Compound D8S12N12]
*A* low band

*Q* Class label required: CCCCCCCCCCCCCCCNc1nc(NCCN2CCN(C)CC2)nc(SCCCCCCCCCCCC)n1 [Compound D5S12N15]
*A* low band

*Q* Class label required: CCCCCCCCCCCCCCCCCCSc1nc(NCCCCCC)nc(NCCN(C)C)n1 [Compound D1S18N6]
*A* high band

*Q* Class label required: CCCCCCCCCCCCCCCCCCSc1nc(NCCN(CC)CC)nc(N(CCCCCCCCCCCC)CCCCCCCCCCCC)n1 [D7S18^2N12]
*A* low band

*Q* Class label required: CCCCCCCCCCCCSc1nc(NCCCCCC)nc(NCCN(CC)CC)n1 [Compound D7S12N6]
*A* middle band

*Q* Class label required: CCCCCCCCCCCCNc1nc(NCCCN2CCOCC2)nc(SCCCCCCC)n1 [Compound D8S7N12]
*A* middle band

*Q* Class label required: CCCCCCCCCCCCCCCNc1nc(NCC2CCN(C)CC2)nc(SCCCCCCCCCCCCCC)n1 [Compound D10S14N15]
*A* middle band

*Q* Class label required: CCCCCCCCCCCNc1nc(NCCN(CC)CC)nc(SCCCCCCCCCCC)n1 [Compound D7S11N11]
*A* high band

*Q* Class label required: CCCCCCCCCCCCCCCCCCNc1nc(NCCN(CC)CC)nc(SCCCCCCCCCCCCCCC)n1 [Compound D7S15N18]
*A* low band

*Q* Class label required: CCCCCCCCCCCCCCCNc1nc(NCCN2CCOCC2)nc(SCCCCCCCCC)n1 [Compound D2S9N15]
*A* middle band

*Q* Class label required: CCCCCCCCCCCNc1nc(NCCCN(C)C)nc(SCCCCCCCC)n1 [Compound D6S8N11]
*A* high band

*Q* Class label required: CCCCCCCCCSc1nc(NCCCCCC)nc(NCCN2CCOCC2)n1 [Compound D2S9N6]
*A* low band

*Q* Class label required: CCCCCCCCCCCCCCCCSc1nc(NCCCCCCCCCCCC)nc(NCCCN2CCOCC2)n1 [Compound D8S16N12]
*A* low band
